Experiment: Toxicity liver stage against HepG2, at 10uM
Type: cell-based
Parameters: test concentration 10 uM, cell line HepG2-A16-CD81EGFP
Details: human, HepG2-A16-CD81EGFP cells; read-out: INHIBITION
test-readout: cytotoxicity at 10 µM (%)
Please state the figure in %; there is no need to write the unit.

# compound, units-label, cytotoxicity at 10 µM
measured = [
    ("CC1CCCN(c2ccccc2OCC(=O)N2CCOCC2)C1 (centres undefined)", "%", -22.3),
]

Documented cytotoxicity at 10 µM of CC(C)c1nccc(CN(C)Cc2cnn(-c3ccccc3)c2)n1 : 6.66

Reported cytotoxicity at 10 µM of CN1CC2(CCN(C(=O)c3cccc(-n4cccn4)c3)CC2)OC1=O : 4.5

Reported cytotoxicity at 10 µM for Cc1ccccc1-c1cc(C(=O)N2CCCC(n3ccnc3C)C2)[nH]n1 (centres undefined) was 14.3

The value of cytotoxicity at 10 µM measured for the compound CNC(=O)C1CN(C(=O)c2ccccc2)Cc2cn(C)nc21 (centres undefined) turned out to be -1.5

Recorded result, O=C(O)c1nnn(-c2ccccc2)c1-c1ccncc1 , cytotoxicity at 10 µM: 2.33

Quick note, cytotoxicity at 10 µM for c1cnnc(NCC2CN(CCn3cccn3)CCO2)c1 (centres undefined) landed at 5.53

Record summary for Cc1cc(OC(F)F)c(C(=O)N2CCC(CN(C)C)CC2)s1 : reported cytotoxicity at 10 µM = 6.04

cytotoxicity at 10 µM for CC(O)CN1CCC(CNCc2cccc(C(N)=O)c2)CC1 (centres undefined) is -8.99

Lab book: cytotoxicity at 10 µM of CO[C@H]1CC[C@H]2[C@H]1OCCN2Cc1ccc(F)c(F)c1 noted as 22.3

The compound identified as CC(C)N1CCCC2(CCN(C(=O)CCCn3cccn3)C2)C1=O (centres undefined) registered its cytotoxicity at 10 µM at 0.264

// field: cytotoxicity at 10 µM; key: COc1ccccc1OC1CCN(Cc2ccc(N(C)C)nc2)CC1 ; value = -11.8

Reported cytotoxicity at 10 µM of Cc1noc(C)c1CCCNC(=O)C1CCN(C(=O)C2CC2)CC1 : 1.23

Record summary for O=C(Nc1ccccc1)c1ccc(NCc2nccs2)nn1 : reported cytotoxicity at 10 µM = 5.62

get_value(item= Cn1ccnc1CCNS(=O)(=O)c1cccc(Br)c1 , readout=cytotoxicity at 10 µM) returns 4.95

What the record says about CN(C)CCN(C)c1cc(N2CCN(c3ccccn3)CC2)ncn1 : cytotoxicity at 10 µM is 1.23

Noted for CN(C)C(=O)CN1C[C@H]2CCN(C(=O)C3CCCO3)CC[C@H]2S1(=O)=O (some centres undefined) : its cytotoxicity at 10 µM reads 20.6

Sample CSCc1cccc(S(=O)(=O)NCc2cnn(C)c2C)c1 ; cytotoxicity at 10 µM observed: 13.7

Entry COc1ccc(C)c2c1N(C(=O)c1cnc(C)s1)CCC2 , cytotoxicity at 10 µM reported as -1.46

* * *

Assay: Toxicity liver stage against HepG2, at 10uM
Type: cell-based
Set-up: test concentration 10 uM, cell line HepG2-A16-CD81EGFP
Settings: human, HepG2-A16-CD81EGFP cells; read-out: INHIBITION
test-readout: cytotoxicity at 10 µM (%)
Kindly provide the numeric value in % only, without the unit symbol.

# compound, measured-value
data = [
    ("COc1ccccc1C(C)(C)NCc1ccc(C)o1", -0.121),
    ("CN(CCn1nc2ccccn2c1=O)CC(=O)NC1CC1", 3.2),
    ("Cc1ccc(N2Cc3c(CN(C)C)nn(C)c3C2)nn1", 2.47),
    ("Cc1cc(C(=O)N(C)CC(F)(F)C(F)(F)F)ccc1-n1cncn1", 1.64),
    ("COc1cccc2c1ccn2CCNC(=O)CCNc1ncccn1", -6.27),
    ("O=C(Nc1cccnc1)[C@H]1C[C@@H]2CCN(Cc3nccs3)C[C@@H]2O1", -68.2),
    ("CN(CC(=O)NC(Cc1ccsc1)c1cccnc1)Cc1ccccn1 (centres undefined)", 3.9),
    ("Cc1noc(C)c1CN1CCO[C@H]2CN(C(=O)N3CCCC3)C[C@H]21", 8.01),
]

Given item O=C(Nc1cccnc1)[C@H]1CN(Cc2nccs2)C[C@H]2OCC[C@@H]12 , the value recorded as its cytotoxicity at 10 µM is 2.88

Just so you know, measured cytotoxicity at 10 µM for Cc1nc(CNCC2CNc3ccnn3C2)cs1 (centres undefined) came out at -8.71

Summary for this compound, O=C([C@H]1COC[C@H]2CN(C3CCCC3)C[C@H]21)N1CCCO1 : cytotoxicity at 10 µM is 2.14

* * *

Assay: Toxicity liver stage against HepG2, at 10uM
Assay type: cell-based
Set-up: test concentration 10 uM, cell line HepG2-A16-CD81EGFP
Conditions: human, HepG2-A16-CD81EGFP cells; read-out: INHIBITION
test-readout: cytotoxicity at 10 µM (%)
Provide the reading as a plain figure in %.

These recorded examples may help you get a feel for the data.
# smiles-representation, cytotoxicity at 10 µM, %
records = [
    ("Cn1cc(CN2CC[C@@H]3[C@@H](CCC(=O)N3CC3CCNCC3)C2)cn1", 1.73),
    ("O=C(O)c1cccc(N2C[C@H](NC(=O)C3CCOCC3)[C@@H](C3CC3)C2)n1", -4.31),
    ("FC(F)(F)c1nc(C2CCNCC2)no1", 5.88),
    ("Cc1ccccc1NC(=O)N1CC[C@@H]2CN(C)S(=O)(=O)[C@@H]2CC1", 4),
    ("O=C(NCc1nnc2n1CCCC2)N1CCc2sccc2C1", -9.78),
]

The reported cytotoxicity at 10 µM of the molecule CCc1nsc(N2CCCN(C(=O)c3ccc(OC)cc3)CC2)n1 was 4.05

* * *

Experiment: Toxicity liver stage against HepG2, at 10uM
Format: cell-based
Set-up: test concentration 10 uM, cell line HepG2-A16-CD81EGFP
Conditions: human, HepG2-A16-CD81EGFP cells; read-out: INHIBITION
test-readout: cytotoxicity at 10 µM (%)
# unit: % | format: bare number

Recorded results for 5 compounds are shown here.
# compound, units-label, cytotoxicity at 10 µM
data = [
    ("Nc1nc2c(c(N3CCCC3)n1)CCN(Cc1ccccn1)CC2", "%", -35.3),
    ("CC(C)OCCN1CCN(C(=O)c2cccc(CC#N)c2)CC1", "%", 0.119),
    ("COCCN1CCC2(CC1)CC(COC)N(c1ncccn1)C2 (stereo not drawn)", "%", -3.53),
    ("CC(C)NC(=O)NCCn1cnc(C2CCCC2)cc1=O", "%", -0.373),
    ("Cc1ncnc2c1CCN(CC1CCOC1)CC2 (stereo not drawn)", "%", -67.2),
]

Lab note: CC(=O)NCC(=O)N1Cc2nccn2CC(COc2cccnc2)C1 (stereo not drawn) gave cytotoxicity at 10 µM of -2.6

cytotoxicity at 10 µM in this record for COCCc1ncc(CNC2(c3ccc(Cl)cc3)CC2)cn1 : -17.3

Data point: O=C(c1cc(-c2cccs2)cs1)N1CCSCC1 ; cytotoxicity at 10 µM = 10.4

Reported cytotoxicity at 10 µM of Cc1nccn1-c1cc(CNC(=O)C(C)(C)C)ccn1 : -11.9

Notebook: O=C(O)CCn1ccc2cc(Br)ccc21 , cytotoxicity at 10 µM read as 10.7

Form field cytotoxicity at 10 µM, entry Cc1ccc2c(n1)N(CCn1cccn1)CCN(C(=O)NC(C)C)C2 : 13.3

// cytotoxicity at 10 µM value for CCn1nc(C)cc1NC(=O)CCn1nc(C)c2ccccc21 : 4.98

Value of cytotoxicity at 10 µM reported for the compound Cc1ncc(C(=O)N2CCCN(Cc3ccccc3F)CC2)c(O)n1 is 0.903

For reference, reported cytotoxicity at 10 µM for CCNc1ncc(C(=O)NC(CCN(C)C)c2ccccc2)cn1 (stereo not drawn) stands at 4.8

Looking up CN(Cc1cc(C2CC2)on1)C(=O)CN1CC(c2ccccc2)CC1=O (stereo not drawn) , I found its cytotoxicity at 10 µM recorded as -6.72

// Cc1cccnc1C(NC(=O)CNC(=O)c1ccoc1C)C(C)C (stereo not drawn) : cytotoxicity at 10 µM value = 2.45

cytotoxicity at 10 µM measured on O=C1CCCc2[nH]c(=O)c(C(=O)N(Cc3ccsc3)C3CC3)cc21 = -10.8

Short answer for CCSc1cncc(NCc2ccc(N3CCNC(=O)C3)cc2)n1 : cytotoxicity at 10 µM was 15.7

Looking up O=C(NC1CC1)N1CCn2c(Cn3cccn3)cnc2C1 , I found its cytotoxicity at 10 µM recorded as -72.8

Measured cytotoxicity at 10 µM of CC(=O)N(C/C=C/c1ccccc1)CCO : 4.64

// recorded cytotoxicity at 10 µM for N[C@@H]1CC[C@@H]1NC(=O)c1ccccc1OC(F)(F)C(F)F : 1.5

In plain terms, CN(C)C(=O)COc1ccccc1CN1CCCC2(C1)CN(C)C(=O)O2 (stereo not drawn) has a documented cytotoxicity at 10 µM of 0.224

cytotoxicity at 10 µM reported for this compound CN(C)[C@H]1C[C@@H](Cc2cc(CO)on2)C1(C)C : 0.994
